observable: melting point (°C)

// known answers, use as guide
# molecule, melting point [°C]
rows = [
    ("COc1cccc(-n2nc3c(Nc4ccc(-c5cnn(C)c5)c(F)c4)cccc3c2C)c1 [Compound 7]", 239.1),
    ("COc1cccc(-n2nc3c(Nc4ccc(-c5cnc(C)o5)cc4)cccc3c2C)c1 [Compound 29]", 152.2),
    ("Cc1cn(-c2ccc(Nc3cccc4cn(CC(F)(F)F)nc34)cc2F)cn1 [Compound 52]", 144.9),
    ("COc1cccc(-n2nc3c(Nc4ccc(-c5cnc(C)o5)cc4)nccc3c2C)c1 [Compound 35]", 185),
    ("COc1cc(Nc2cccc3c(C)n(-c4ccc(F)cc4)nc23)ccc1-c1cnc(C)o1 [Compound 40]", 164.4),
]

P. Cc1ncc(-c2ccc(Nc3cccc4cn(CC(F)(F)F)nc34)cn2)o1 [Compound 44]
Q. Cc1ncc(-c2ccc(Nc3cccc4cn(C5CCOCC5)nc34)cc2)o1 [Compound 28]
[in] Given the listed items, does P or Q have the lesser reported melting point? Could you answer with the label of the item you picked?
[out] P

====

Test system: Aβ42
method-notes: Method 2: Aβ42 Alphalisa on supernatant of SKNBE2 cells carrying APP 695 wild type
Type: cell-based
measurement-conditions: Homo sapiens, SKNBE2 cells APP 695 wild type, overnight
observable: IC50 (nM)

# molecule, IC50 [nM]
data = [
    ("COc1nc(Nc2cccc3cn(CC(F)(F)F)nc23)ccc1-n1cnc(C)c1 [Compound 54]", 66),
]

a. COc1cccc(-n2nc3c(Nc4ccc(-c5cnn(C)c5)c(F)c4)cccc3c2C)c1 [Compound 7]
b. COc1cc(Nc2cccc3cn(CC(F)(F)F)nc23)ccc1-n1cnc(C)n1 [Compound 18]
[in] Given the listed items, does a or b have the lesser reported IC50? Could you answer with the label of the item you picked?
[out] a

====

Tested on: Aβ42
method-notes: Method 1: Aβ42 sandwich ELISA on media of SKNBE2 cells carrying APP 695 wild type (γ-secretase-modulating activity)
Format: cell-based
measurement-conditions: SKNBE2 cells APP 695 wild type, 18 hours
observable: IC50 (nM)

# molecule, measurement
rows = [
    ("COc1cc(Nc2cccc3cn(CC4CC4)nc23)ccc1-c1ocnc1C [Compound 37]", 2660),
    ("CCCCn1nc2c(Nc3ccc(-n4cnc(C)c4)c(OC)c3)cccc2c1C [Compound 10]", 99),
    ("COc1cc(Nc2cccc3cn(CC4CC4)nc23)ccc1-n1cnc(C)c1 [Compound 13]", 283),
    ("Cc1ncc(-c2ccc(Nc3cccc4cn(CC5CC5)nc34)cc2)o1 [Compound 25]", 1740),
]

A. COc1cccc(-n2nc3c(Nc4ccc(-c5ocnc5C)c(OC)c4)cccc3c2C)c1 [Compound 39]
B. CCCCn1cc2cc(C#N)cc(Nc3ccc(-n4cnc(C)c4)c(OC)c3)c2n1 [Compound 11]
C. Cc1ncc(-c2ccc(Nc3cccc4c(C)n(-c5ccc(F)cc5)nc34)cc2)o1 [Compound 31]
[in] Form: Sort by [IC50] Order [ ascending ] Your reply should list the labels following the order given in the request.
[out] A, B, C
(A: 29 nM, B: 77 nM, C: 126 nM)

====

observable: melting point (°C)

# molecule, measurement
records = [
    ("Cc1ncc(-c2ccc(Nc3cccc4c(C#N)n(-c5ccc(F)cc5)nc34)cc2)o1 [Compound 32]", 237.9),
    ("Cc1ncc(-c2ccc(Nc3cccc4cn(C)nc34)cc2)o1 [Compound 24]", 168.7),
    ("COc1cc(Nc2cc(C)nc3cn(CC(F)(F)F)nc23)ccc1-c1cnc(C)o1 [Compound 51]", 211.5),
    ("COc1cccc(-n2nc3c(Nc4ccc(-c5cnc(C)o5)c(OC)c4)nccc3c2C)c1 [Compound 42]", 194.4),
    ("COc1cc(Nc2nc(C)cc3cn(CC(F)(F)F)nc23)ccc1-n1cnc(C)n1 [Compound 21]", 203.4),
    ("COc1cc(Nc2nc(C)cc3cn(CC(F)(F)F)nc23)ccc1-c1cnc(C)o1 [Compound 41]", 213.8),
]
